The values you see were collected from patent US7803801B2.

target: GST-Syk Full Protein (human) (Homo sapiens); assay: Syk kinase inhibition test (HTRF method); format: biochemical; conditions: HTRF, 100 μM ATP, 30 min room temperature, average; read-out: sykHTRF ave IC50
pIC50: −log10 of the molar value. Where a name gives a salt, the structure may show the parent alone.
Outcome Measure: pIC50

State its pIC50: Cc1ccnc(Nc2cccc(-c3cnc([C@H]4CC[C@H](C(=O)N(CCO)CCO)CC4)s3)n2)c1
6.00 to 7.00

Given Cc1ccnc(Nc2cccc(-c3cnc([C@H]4CC[C@H](CN)CC4)s3)n2)c1 , respond with its pIC50.
> 7.00

Specify pIC50 for Cc1ccnc(Nc2cccc(-c3cnc(C4=NCCC4)s3)n2)c1 and stop.
6.00 to 7.00

Return pIC50 (reported value) for this molecule: COC(=O)N1CCC(c2ncc(-c3cccc(Nc4cc(C)ccn4)n3)s2)CC1
6.00 to 7.00

Look up pIC50 of Cc1ccnc(Nc2cccc(-c3cnc(CNC(=O)CCO)s3)n2)c1 and report it.
6.00 to 7.00

Tell me pIC50 reported for Cc1ccnc(Nc2cccc(-c3cnc(N4CCN(C)C(=O)C4)s3)n2)c1
6.00 to 7.00

Give recorded pIC50. Cc1ccnc(Nc2cccc(-c3cnc(COC(=O)N4CCOCC4)s3)n2)c1
6.00 to 7.00

Complete the entry with pIC50 for CNC(=O)c1nc([C@H](C)NC(C)=O)sc1-c1cccc(Nc2cc(C)ccn2)n1
< 6.00

Entry Cc1ccnc(Nc2cccc(-c3cnc([C@H]4CC[C@H](C(=O)N5CCC(N)C5)CC4)s3)n2)c1 (some centres unmarked) [Compound A-311, trihydrochloride] needs its pIC50 filled in; supply it.
> 7.00

Item O=C(O)[C@H]1CC[C@H](c2ncc(-c3cccc(Nc4cc5ccccc5cn4)n3)s2)CC1 : provide pIC50
> 7.00

Give the measured pIC50 for Cc1ccnc(Nc2cccc(-c3cnc(C4CCN(C(=O)CC(=O)O)CC4)s3)n2)c1 [Compound A-192, hydrochloride]
> 7.00

Retrieve pIC50 measured for Cc1ccnc(Nc2cccc(-c3cnc(CC(=O)OC(C)(C)C)s3)n2)c1 and print it.
6.00 to 7.00

Given CNC(=O)N1CCC(c2ncc(-c3cccc(Nc4cc(C)ccn4)n3)s2)CC1 , respond with its pIC50.
6.00 to 7.00

Look up and report measured pIC50 for this entry: Cc1ccnc(Nc2cccc(-c3cnc(CNCCC(=O)O)s3)n2)c1
6.00 to 7.00

Look up and state reported pIC50 for CC(=O)N[C@@H](C)c1ncc(-c2cccc(Nc3cc(Cl)ccn3)n2)s1
> 7.00

Answer with the recorded pIC50 for the molecule listed here: Cc1ccnc(Nc2cccc(-c3cnc([C@@H](O)C(C)C)s3)n2)c1
> 7.00

Please report the measured pIC50 for Cc1ccnc(Nc2cccc(-c3cnc(C4CCN(C(=O)N5CCC(=O)CC5)CC4)s3)n2)c1
6.00 to 7.00

Indicate the recorded pIC50 value for this molecule: O=C([C@H]1CC[C@H](c2ncc(-c3cccc(Nc4cc5ccccc5cn4)n3)s2)CC1)N1CCC(O)CC1
6.00 to 7.00

Give recorded pIC50. O=C1CC[C@@H](c2ncc(-c3cccc(Nc4cc(OCCO)ccn4)n3)s2)N1
6.00 to 7.00

Please report pIC50 for the following molecule: CC(=O)N[C@H]1CC[C@H](c2ncc(-c3cccc(Nc4cc(C)ccn4)n3)s2)CC1
> 7.00

Fill in pIC50 for record Cc1ccnc(Nc2cccc(-c3cnc(CCc4cccc(C(=O)O)c4)s3)n2)c1
6.00 to 7.00

Supply measured pIC50 of Cc1ccnc(Nc2cccc(-c3cnc([C@H]4CC[C@H](C(=O)NCCc5ccccn5)CC4)s3)n2)c1 in your reply.
6.00 to 7.00

// fetch pIC50 given entry Cc1ccnc(Nc2cccc(-c3cnc(N4CCC(C(=O)O)CC4)s3)n2)c1
> 7.00

Report measured pIC50; entry is Cc1ccnc(Nc2cccc(-c3cnc([C@H]4CC[C@H](C(=O)N5CCC[C@H]5CO)CC4)s3)n2)c1
6.00 to 7.00

Retrieve pIC50 measured for CC(=O)N(C)c1ncc(-c2cccc(Nc3cc(C)ccn3)n2)s1 and print it.
> 7.00

Give me measured pIC50, please, for this molecule: Cc1ccnc(Nc2cccc(-c3cnc(CN4CCNC(=O)C4)s3)n2)c1
> 7.00

In one line, give reported pIC50 of the entry Cc1ccnc(Nc2cccc(-c3cnc(C4CCC(O)CC4)s3)n2)c1 (centres unmarked) .
> 7.00

Return pIC50 for the following molecule: O=C([C@H]1CC[C@H](c2ncc(-c3cccc(Nc4cc(Cl)ccn4)n3)s2)CC1)N1CCC(O)CC1
> 7.00

State its pIC50: CC(=O)N[C@@H](C)c1nc(C(N)=O)c(-c2cccc(Nc3cc(C)ccn3)n2)s1
< 6.00

Identify measured pIC50 associated with Cc1ccnc(Nc2cccc(-c3cnc([C@H](COCc4ccccc4)NC(=O)OC(C)(C)C)s3)n2)c1
< 6.00

Consider the molecule Cc1ccnc(Nc2cccc(-c3cnc([C@H](C)NC(=O)c4ccccc4)s3)n2)c1 . State its measured pIC50.
6.00 to 7.00

Supply pIC50 value. Item: CC(=O)N[C@@H](CCC(=O)O)c1ncc(-c2cccc(Nc3cc(C)ccn3)n2)s1
6.00 to 7.00
